src = patent US5688913A

Below: a set of entries, each annotated with reported RELATIVE POTENCY (relative peptide inhibition of VLA-4 binding CS-1).
subjectOfTest: VLA-4 (Homo sapiens, UniProt P05556+P13612)
Sequence (P13612 34-1032): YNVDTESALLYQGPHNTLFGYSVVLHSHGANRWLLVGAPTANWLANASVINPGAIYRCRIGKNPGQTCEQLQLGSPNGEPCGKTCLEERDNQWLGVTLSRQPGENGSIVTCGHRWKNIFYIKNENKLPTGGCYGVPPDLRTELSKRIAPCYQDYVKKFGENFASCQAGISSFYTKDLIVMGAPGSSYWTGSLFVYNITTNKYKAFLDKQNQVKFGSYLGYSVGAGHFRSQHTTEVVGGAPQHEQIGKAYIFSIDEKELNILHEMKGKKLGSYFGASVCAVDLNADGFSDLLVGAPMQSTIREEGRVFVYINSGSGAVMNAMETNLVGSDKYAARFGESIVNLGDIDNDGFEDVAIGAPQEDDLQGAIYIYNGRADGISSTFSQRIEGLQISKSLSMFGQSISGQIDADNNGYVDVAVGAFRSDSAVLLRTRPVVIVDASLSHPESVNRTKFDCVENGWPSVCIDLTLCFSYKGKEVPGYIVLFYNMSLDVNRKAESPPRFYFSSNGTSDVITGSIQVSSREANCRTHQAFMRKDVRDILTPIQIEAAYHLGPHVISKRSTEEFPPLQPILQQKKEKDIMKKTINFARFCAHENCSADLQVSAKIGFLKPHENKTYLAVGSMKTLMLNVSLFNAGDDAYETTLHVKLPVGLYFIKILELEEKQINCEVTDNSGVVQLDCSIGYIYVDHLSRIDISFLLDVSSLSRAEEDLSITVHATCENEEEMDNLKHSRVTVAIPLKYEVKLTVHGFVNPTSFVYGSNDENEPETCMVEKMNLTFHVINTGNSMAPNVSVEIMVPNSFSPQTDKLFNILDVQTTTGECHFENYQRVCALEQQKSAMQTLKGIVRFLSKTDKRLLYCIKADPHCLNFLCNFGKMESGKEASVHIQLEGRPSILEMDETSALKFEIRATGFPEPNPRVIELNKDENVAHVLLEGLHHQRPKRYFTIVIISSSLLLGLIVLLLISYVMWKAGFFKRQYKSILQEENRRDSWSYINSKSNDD
Sequence (P05556 21-798): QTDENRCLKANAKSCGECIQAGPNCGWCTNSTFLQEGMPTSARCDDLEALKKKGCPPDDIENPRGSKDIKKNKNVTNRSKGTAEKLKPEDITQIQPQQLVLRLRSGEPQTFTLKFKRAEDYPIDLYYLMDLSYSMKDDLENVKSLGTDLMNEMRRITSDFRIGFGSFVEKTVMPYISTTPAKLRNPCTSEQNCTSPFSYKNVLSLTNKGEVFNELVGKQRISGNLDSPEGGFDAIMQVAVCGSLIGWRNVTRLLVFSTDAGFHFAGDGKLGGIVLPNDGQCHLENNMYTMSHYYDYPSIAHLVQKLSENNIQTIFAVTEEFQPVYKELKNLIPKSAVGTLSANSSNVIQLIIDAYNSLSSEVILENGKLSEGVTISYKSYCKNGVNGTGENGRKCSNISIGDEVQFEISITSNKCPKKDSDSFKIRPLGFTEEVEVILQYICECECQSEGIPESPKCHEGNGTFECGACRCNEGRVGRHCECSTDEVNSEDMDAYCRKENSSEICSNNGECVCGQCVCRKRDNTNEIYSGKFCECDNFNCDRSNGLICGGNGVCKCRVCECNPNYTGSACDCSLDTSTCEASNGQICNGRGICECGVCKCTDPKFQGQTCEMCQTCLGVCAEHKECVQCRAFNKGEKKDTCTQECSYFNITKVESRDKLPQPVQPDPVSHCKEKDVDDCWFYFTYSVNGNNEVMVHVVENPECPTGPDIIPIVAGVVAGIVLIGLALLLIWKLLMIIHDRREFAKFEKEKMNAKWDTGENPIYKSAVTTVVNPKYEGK
methodSummary: cell-based
Format: cell-based
Parameters: host or cells: Jurkat (human T lymphoblastic line)
conditions: normalized IC50 relative to standard peptide of SEQ ID NO:3 (=1); about one-tenth or less of the standard is assigned zero
Square brackets hold non-standard residues; d marks the D form. Peptide text beside a SMILES is read from it. * marks the point of attachment. NHOctadecyl = CCCCCCCCCCCCCCCCCCN*; hPhe = N[C@@H](CCc1ccccc1)C(=O)O; Cha = N[C@@H](CC1CCCCC1)C(=O)O; Phg = N[C@H](C(=O)O)c1ccccc1; PhAc = O=C(Cc1ccccc1)*; NHBn = c1ccc(CN*)cc1; Bz = O=C(c1ccccc1)*; Ahx = NCCCCCC(=O)O
Number only, please.

In plain terms, CC(C)C[C@H](NC(=O)c1ccccc1)C(=O)N[C@@H](CC(=O)O)C(=O)N[C@H](C(=O)N1CCC[C@H]1C(N)=O)C(C)C [X L D V P benzoyl amide] has a documented RELATIVE POTENCY (relative peptide inhibition of VLA-4 binding CS-1) of 37

Just so you know, measured RELATIVE POTENCY (relative peptide inhibition of VLA-4 binding CS-1) for NC(=O)[C@H]1CCCN1C(=O)[C@H](Cc1ccccc1)NC(=O)[C@H](CC(=O)O)NC(=O)[C@H](CC1CCCCC1)NC(=O)c1ccccc1 (Bz-[Cha]DF[dP]-NH2) came out at 17

Reported RELATIVE POTENCY (relative peptide inhibition of VLA-4 binding CS-1) for CC(C)C[C@H](NC(=O)Cc1ccccc1)C(=O)N[C@@H](CC(=O)O)C(=O)N[C@@H](CCc1ccccc1)C(=O)N1CCC[C@@H]1C(N)=O (PhAc-LD[hPhe][dP]-NH2) was 94

RELATIVE POTENCY (relative peptide inhibition of VLA-4 binding CS-1) reported for this compound CC(C)C[C@H](NC(=O)Cc1ccccc1)C(=O)N[C@@H](CC(=O)O)C(=O)N[C@@H](Cc1ccccc1)C(=O)N1CC(O)C(O)C1 (some centres unmarked) : 194

The value of RELATIVE POTENCY (relative peptide inhibition of VLA-4 binding CS-1) measured for the compound CC(C)C[C@H](NC(=O)Cc1ccccc1)C(=O)N[C@@H](CC(=O)O)C(=O)N[C@H](C(=O)N1CCC[C@@H]1C(N)=O)c1ccccc1 (PhAc-LD[Phg][dP]-NH2) turned out to be 61

New cases:
Quick note, RELATIVE POTENCY (relative peptide inhibition of VLA-4 binding CS-1) for CC(C)C[C@H](NC(=O)c1ccccc1)C(=O)N[C@@H](CC(=O)O)C(=O)N[C@@H](Cc1ccccc1)C(=O)N1CCC[C@@H]1C(N)=O [X L D F p benzoyl amide] (Bz-LDF[dP]-NH2) landed at 75

Memo: "CC(C)C[C@H](NC(=O)Cc1ccccc1)C(=O)N[C@@H](CC(=O)O)C(=O)NC(Cc1ccccc1)Cc1ccccc1" , reported RELATIVE POTENCY (relative peptide inhibition of VLA-4 binding CS-1): 0

get_value(item= CC(C)C[C@H](NC(=O)Cc1ccccc1)C(=O)N[C@@H](CC(=O)O)C(=O)NNC(=O)OC(C)(C)C [X L D Z phenylacetyl N'-t-Boc-hydrazide] , readout=RELATIVE POTENCY (relative peptide inhibition of VLA-4 binding CS-1)) returns 2

# compound "CCCCCCCCCCCCCCCCCC(=O)OC1CCN(C(=O)[C@H](Cc2ccccc2)NC(=O)[C@H](CC(=O)O)NC(=O)[C@H](CC(C)C)NC(=O)Cc2ccccc2)CC1" ; its RELATIVE POTENCY (relative peptide inhibition of VLA-4 binding CS-1) = 1

Record CC(C)C[C@H](NC(=O)Cc1ccccc1)C(=O)N[C@@H](CC(=O)O)C(=O)NC1Cc2ccccc2N(CC(N)=O)C1=O (some centres unmarked) . Reported RELATIVE POTENCY (relative peptide inhibition of VLA-4 binding CS-1): 45

Input "CC(C)C[C@H](NC(=O)Cc1ccccc1)C(=O)N[C@@H](CC(=O)O)C(=O)NCCN1CCOCC1" . Output RELATIVE POTENCY (relative peptide inhibition of VLA-4 binding CS-1): 13

Given item CC(C)C[C@H](NC(=O)Cc1ccccc1)C(=O)N[C@@H](CC(=O)O)C(=O)NC1Cc2ccccc2CN1 (some centres unmarked) , the value recorded as its RELATIVE POTENCY (relative peptide inhibition of VLA-4 binding CS-1) is 3

Record summary for CC(C)[C@H](NC(=O)[C@H](CC(=O)O)NC(=O)[C@H](CC1CCCCC1)NC(=O)c1ccccc1)C(=O)N1CCC[C@@H]1C(N)=O (Bz-[Cha]DV[dP]-NH2) : reported RELATIVE POTENCY (relative peptide inhibition of VLA-4 binding CS-1) = 11

Note to self: RELATIVE POTENCY (relative peptide inhibition of VLA-4 binding CS-1) recorded for CC(C)C[C@H](NC(=O)Cc1ccccc1)C(=O)N[C@@H](CC(=O)O)C(=O)NCc1ccccc1 [X L D Z phenylacetyl benzylamide] (PhAc-Leu-Asp-NHBn) was 19

Documented RELATIVE POTENCY (relative peptide inhibition of VLA-4 binding CS-1) of CCCCCCCCCCCCCCCCCCNC(=O)CCCCCNC(=O)[C@@H]1CCCN1C(=O)[C@H](Cc1ccccc1)NC(=O)[C@H](CC(=O)O)NC(=O)[C@H](CC(C)C)NC(=O)Cc1ccccc1 (PhAc-LDFP[Ahx]-NHOctadecyl) : 1
